- Measured on: UniProt:Q12809
- Sequence (Q12809 whole entry): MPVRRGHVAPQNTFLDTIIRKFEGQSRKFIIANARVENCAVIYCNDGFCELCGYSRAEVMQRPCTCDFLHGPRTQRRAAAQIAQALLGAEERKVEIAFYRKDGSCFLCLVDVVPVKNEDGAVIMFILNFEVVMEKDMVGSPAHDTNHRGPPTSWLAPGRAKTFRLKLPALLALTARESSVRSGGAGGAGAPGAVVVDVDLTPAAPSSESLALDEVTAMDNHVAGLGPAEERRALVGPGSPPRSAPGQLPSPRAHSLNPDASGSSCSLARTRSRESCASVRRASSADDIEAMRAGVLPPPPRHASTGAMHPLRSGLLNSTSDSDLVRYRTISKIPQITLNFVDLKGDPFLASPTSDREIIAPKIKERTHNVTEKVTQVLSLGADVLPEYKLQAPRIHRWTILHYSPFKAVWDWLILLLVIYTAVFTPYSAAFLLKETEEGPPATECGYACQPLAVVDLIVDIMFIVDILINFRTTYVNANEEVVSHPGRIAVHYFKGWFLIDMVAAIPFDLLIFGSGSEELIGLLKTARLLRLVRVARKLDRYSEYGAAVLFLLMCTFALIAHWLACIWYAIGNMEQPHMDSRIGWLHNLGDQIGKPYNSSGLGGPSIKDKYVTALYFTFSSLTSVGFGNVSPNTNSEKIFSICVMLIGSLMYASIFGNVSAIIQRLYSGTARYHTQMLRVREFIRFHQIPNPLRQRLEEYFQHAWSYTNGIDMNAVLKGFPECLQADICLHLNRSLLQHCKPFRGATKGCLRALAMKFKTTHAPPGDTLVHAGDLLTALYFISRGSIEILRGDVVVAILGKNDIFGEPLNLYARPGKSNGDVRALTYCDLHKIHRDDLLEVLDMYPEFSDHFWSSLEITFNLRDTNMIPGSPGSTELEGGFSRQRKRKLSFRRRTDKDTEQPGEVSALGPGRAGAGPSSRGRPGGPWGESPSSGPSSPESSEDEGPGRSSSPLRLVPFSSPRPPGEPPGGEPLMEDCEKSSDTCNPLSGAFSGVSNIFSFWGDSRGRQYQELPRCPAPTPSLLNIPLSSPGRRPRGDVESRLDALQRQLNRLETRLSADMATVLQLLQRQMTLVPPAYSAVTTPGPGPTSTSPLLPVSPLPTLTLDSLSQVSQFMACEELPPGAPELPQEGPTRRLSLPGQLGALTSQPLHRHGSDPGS
- Assay info: Displacement of [3H]-dofetilide from human ERG at 10 uM relative to control
- Format: toxicity
Measurement label: Activity (%)

compound=O=C(Cc1ccc(Cl)c(Cl)c1)N1CCN(c2ccccc2)CC1 measured_number=2
compound=O=C(Cc1ccc(Cl)c(Cl)c1)N1CCN(c2ccc3nnc(-c4ccnc(C(F)(F)F)c4)n3n2)CC1 measured_number=95
compound=O=C(Nc1nc2nc(N3CCN(C(=O)Cc4ccc(Cl)c(Cl)c4)CC3)ccc2s1)c1ccccc1 measured_number=47
compound=O=C(Nc1ccc(Cl)c(Cl)c1)N1CCN(c2ccc3nccn3n2)CC1 measured_number=77
compound=Nc1nc2nc(N3CCN(C(=O)Cc4ccc(Cl)c(Cl)c4)CC3)ccc2s1 measured_number=34
compound=O=C(Cc1ccc(Cl)c(Cl)c1)N1CCN(c2ccc3nn(Cc4ccccc4)cc3n2)CC1 measured_number=80
compound=O=C(Cc1ccc(Cl)c(Cl)c1)N1CCN(C2=Nn3cnnc3CC2)CC1 measured_number=15
